Known kinase still bound, per cent of control of a selection of compounds
target: MYLK (human); assay: KINOMEscan competition binding; conditions: compound 10.0 µM
Number only, in %; omit the unit.

Example entries begin here.
CS(=O)(=O)N1CCN(Cc2cc3nc(-c4cccc5[nH]ncc45)nc(N4CCOCC4)c3s2)CC1
100
COc1cc(N2CCN(C)CC2)ccc1Nc1ncc2c(n1)N(C)c1ccccc1C(=O)N2C
13
C[C@@H](Oc1cc(-c2cnn(C3CCNCC3)c2)cnc1N)c1c(Cl)ccc(F)c1Cl
82
O=c1cc(N2CCOCC2)oc2c(-c3cccc4c3sc3ccccc34)cccc12
91

Here is the next item to consider.
# CCN(CC)CCCCNc1ncc2c(n1)N(C)C(=O)N(c1c(Cl)c(OC)cc(OC)c1Cl)C2 with MYLK (human): kinase still bound, per cent of control is 100

---

biological target: UniProt:P52564; assay: KINOMEscan competition binding; conditions: compound 10.0 µM
Sequence (P52564 whole entry, looked up): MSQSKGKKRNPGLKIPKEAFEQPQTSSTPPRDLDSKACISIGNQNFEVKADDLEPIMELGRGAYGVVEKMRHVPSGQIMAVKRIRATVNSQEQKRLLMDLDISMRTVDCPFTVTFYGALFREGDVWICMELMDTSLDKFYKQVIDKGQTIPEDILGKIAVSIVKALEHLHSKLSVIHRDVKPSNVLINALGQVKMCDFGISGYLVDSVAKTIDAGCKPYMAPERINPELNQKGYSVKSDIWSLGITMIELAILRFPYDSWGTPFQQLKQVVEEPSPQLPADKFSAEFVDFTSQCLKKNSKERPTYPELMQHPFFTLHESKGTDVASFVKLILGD
Known kinase still bound, per cent of control of a selection of compounds
Number only, in %; omit the unit.

Record summary for CCN(CC)CCCCNc1ncc2c(n1)N(C)C(=O)N(c1c(Cl)c(OC)cc(OC)c1Cl)C2 : reported kinase still bound, per cent of control = 100

Record summary for O=C(Nc1cccc(Nc2ncc(Br)c(NCCc3cnc[nH]3)n2)c1)N1CCCC1 : reported kinase still bound, per cent of control = 22

Record summary for COc1cc(N2CCN(C)CC2)ccc1Nc1ncc2c(n1)N(C)c1ccccc1C(=O)N2C : reported kinase still bound, per cent of control = 100

Record summary for C=CC(=O)Nc1cc(-n2c(=O)ccc3cnc4ccc(-c5cn[nH]c5)cc4c32)ccc1C : reported kinase still bound, per cent of control = 53

Record summary for COCC(=O)NC/C=C/c1ccc2ncnc(Nc3ccc(Oc4ccc(C)nc4)c(C)c3)c2c1 : reported kinase still bound, per cent of control = 93

Record summary for Cc1n[nH]c2ccc(-c3cncc(OC[C@@H](N)Cc4c[nH]c5ccccc45)c3)cc12 : reported kinase still bound, per cent of control = 100

Record summary for COc1ccc(N(C(=O)Oc2c(C)cccc2C)c2ccnc(Nc3ccc(N4CCN(C)CC4)cc3)n2)c(OC)c1 : reported kinase still bound, per cent of control = 66

Record summary for CNC(=O)c1ccc(Nc2cc(Nc3ccccc3S(=O)(=O)C(C)C)c3cc[nH]c3n2)nc1 : reported kinase still bound, per cent of control = 29

Record summary for CCN(CC)CCCCNc1ncc2cc(-c3cc(OC)cc(OC)c3)c(NC(=O)NC(C)(C)C)nc2n1 : reported kinase still bound, per cent of control = 100

---

target: MINK1 (human) (UniProt Q8N4C8); test: KINOMEscan competition binding; settings: compound 10.0 µM
Sequence (Q8N4C8 whole entry, looked up): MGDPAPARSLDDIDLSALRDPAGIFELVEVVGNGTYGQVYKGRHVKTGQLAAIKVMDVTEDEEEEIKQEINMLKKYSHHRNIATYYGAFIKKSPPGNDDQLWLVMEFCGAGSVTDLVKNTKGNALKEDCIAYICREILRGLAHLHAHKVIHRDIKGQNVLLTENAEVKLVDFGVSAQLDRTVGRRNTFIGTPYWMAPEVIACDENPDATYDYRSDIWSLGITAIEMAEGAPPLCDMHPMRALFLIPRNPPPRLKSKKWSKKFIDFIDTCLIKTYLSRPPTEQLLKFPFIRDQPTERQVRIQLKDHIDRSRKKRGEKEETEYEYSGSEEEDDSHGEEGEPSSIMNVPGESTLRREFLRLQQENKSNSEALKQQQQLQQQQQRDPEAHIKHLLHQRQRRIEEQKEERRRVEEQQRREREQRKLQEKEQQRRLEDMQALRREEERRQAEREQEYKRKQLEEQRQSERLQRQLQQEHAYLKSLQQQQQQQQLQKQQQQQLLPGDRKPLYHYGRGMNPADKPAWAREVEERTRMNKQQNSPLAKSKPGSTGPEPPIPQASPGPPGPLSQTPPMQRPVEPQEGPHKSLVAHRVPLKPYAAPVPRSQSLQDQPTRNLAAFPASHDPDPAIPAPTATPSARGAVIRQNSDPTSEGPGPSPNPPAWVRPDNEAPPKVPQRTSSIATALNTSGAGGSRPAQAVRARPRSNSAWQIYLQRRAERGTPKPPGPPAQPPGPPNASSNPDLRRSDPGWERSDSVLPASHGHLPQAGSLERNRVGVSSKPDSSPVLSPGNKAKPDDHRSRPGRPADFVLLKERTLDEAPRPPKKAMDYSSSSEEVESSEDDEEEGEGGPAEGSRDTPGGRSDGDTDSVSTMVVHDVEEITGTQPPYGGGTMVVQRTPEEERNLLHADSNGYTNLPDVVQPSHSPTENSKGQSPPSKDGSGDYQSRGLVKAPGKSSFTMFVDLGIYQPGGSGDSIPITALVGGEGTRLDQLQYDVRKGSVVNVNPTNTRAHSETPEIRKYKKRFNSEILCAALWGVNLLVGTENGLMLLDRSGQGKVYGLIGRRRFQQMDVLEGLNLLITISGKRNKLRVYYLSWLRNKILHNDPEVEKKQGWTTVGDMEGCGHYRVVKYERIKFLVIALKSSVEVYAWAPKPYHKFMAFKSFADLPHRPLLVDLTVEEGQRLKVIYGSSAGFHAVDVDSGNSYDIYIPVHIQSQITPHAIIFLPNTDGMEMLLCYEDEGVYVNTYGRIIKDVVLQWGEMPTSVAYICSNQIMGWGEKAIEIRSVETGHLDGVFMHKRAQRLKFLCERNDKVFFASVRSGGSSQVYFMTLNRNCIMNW
MEASURED PROPERTY: kinase still bound, per cent of control
Hi, when you answer, please include the unit after the number. Thanks!

CN(C)C/C=C/C(=O)Nc1ccc(C(=O)Nc2cccc(Nc3nccc(-c4cccnc4)n3)c2)cc1
50%

# COc1ccc(N(C(=O)Oc2c(C)cccc2C)c2ccnc(Nc3ccc(N4CCN(C)CC4)cc3)n2)c(OC)c1 with MINK1 (human) (UniProt Q8N4C8): kinase still bound, per cent of control is 14%

# O=C(Nc1cccc(Nc2ncc(Br)c(NCCc3cnc[nH]3)n2)c1)N1CCCC1 with MINK1 (human) (UniProt Q8N4C8): kinase still bound, per cent of control is 4.2%

# C=CC(=O)Nc1cc(-n2c(=O)ccc3cnc4ccc(-c5cn[nH]c5)cc4c32)ccc1C with MINK1 (human) (UniProt Q8N4C8): kinase still bound, per cent of control is 31%

# Cc1n[nH]c2ccc(-c3cncc(OC[C@@H](N)Cc4c[nH]c5ccccc45)c3)cc12 with MINK1 (human) (UniProt Q8N4C8): kinase still bound, per cent of control is 6.2%

# O=c1cc(N2CCOCC2)oc2c(-c3cccc4c3sc3ccccc34)cccc12 with MINK1 (human) (UniProt Q8N4C8): kinase still bound, per cent of control is 100%

# CCN(CC)CCCCNc1ncc2c(n1)N(C)C(=O)N(c1c(Cl)c(OC)cc(OC)c1Cl)C2 with MINK1 (human) (UniProt Q8N4C8): kinase still bound, per cent of control is 100%

# N#CCNC(=O)c1ccc(-c2ccnc(Nc3ccc(N4CCOCC4)cc3)n2)cc1 with MINK1 (human) (UniProt Q8N4C8): kinase still bound, per cent of control is 82%

# COCC(=O)NC/C=C/c1ccc2ncnc(Nc3ccc(Oc4ccc(C)nc4)c(C)c3)c2c1 with MINK1 (human) (UniProt Q8N4C8): kinase still bound, per cent of control is 77%
